- assayProcedure: small-molecule microarray binders of probe aEGFR, primary screen, biochemical, biotinylated probe, 635/667 nm fluorescence (AID 1097);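 note: probe is a biotinylated anti-EGFR antibody binding compounds printed on slides; score combines fluorescence near 667 nm and signal to noise of each spot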
- measurementConditions: higher = more signal
recordedMetric: composite z-score
Provide a numeric answer; units are not to be included.

Could you please provide reported composite z-score for CO[C@H]1COC(=O)CCC[C@@H](C)[C@H](OC)COC(=O)[C@@H]2CCCN2C(=O)CC=C[C@@H]1C ? Thanks! 0.0869

Tell me measured composite z-score for COc1ccc(C#C[C@@H]2C=C[C@H](OC(C)=O)[C@@H](COC(C)=O)O2)cc1 please. -0.122

Look up and report measured composite z-score for this entry: Cc1ccc(S(=O)(=O)N[C@@H]2COC(=O)[C@@H](C)COC(=O)CC=C[C@H]2C)cc1 -0.182

Give the reported value of composite z-score for this record: CCc1cc2c(nc1CC)CCN(CCC(C)=NO[C@H](C)c1cn([C@@H]3COC[C@H]3O)nn1)C2 0.0004

Provide one value: measured composite z-score of CC(CCN1CCCCc2nc(C)c(C)cc21)=NO[C@H](C)c1cn([C@H](CO)Cc2ccccc2)nn1 -0.026

Supply recorded composite z-score for CCOC(=O)[C@H](CC(C)C)NC(=O)CCC1CC(OC(=O)NCCc2ccc(F)cc2)CC2(CCCC(COC(=O)NCCc3ccc(Cl)cc3)O2)O1 (stereo partly drawn) here. -0.123

Give the value of composite z-score reported for the following: O=C1C=C[C@@H](O)[C@@H]2[C@@H]3C(=O)N(C[C@@H]4CCCO4)C(=O)[C@@H]3CC[C@@H]12 -0.0208

For the compound Cc1cc2c(nc1C)CCCCN2CC(C)ON=C1[C@H]2CCn3c(=O)n(-c4ccccc4)c(=O)n3[C@H]2[C@H](O)[C@@H]2O[C@H]12 (stereo partly drawn) , give its measured composite z-score value. -0.0922

* * *

- measurementTarget: Dihydroorotate dehydrogenase (quinone), mitochondrial (Plasmodium falciparum (isolate 3D7)) (UniProt Q08210)
- Sequence (Q08210 whole entry, looked up): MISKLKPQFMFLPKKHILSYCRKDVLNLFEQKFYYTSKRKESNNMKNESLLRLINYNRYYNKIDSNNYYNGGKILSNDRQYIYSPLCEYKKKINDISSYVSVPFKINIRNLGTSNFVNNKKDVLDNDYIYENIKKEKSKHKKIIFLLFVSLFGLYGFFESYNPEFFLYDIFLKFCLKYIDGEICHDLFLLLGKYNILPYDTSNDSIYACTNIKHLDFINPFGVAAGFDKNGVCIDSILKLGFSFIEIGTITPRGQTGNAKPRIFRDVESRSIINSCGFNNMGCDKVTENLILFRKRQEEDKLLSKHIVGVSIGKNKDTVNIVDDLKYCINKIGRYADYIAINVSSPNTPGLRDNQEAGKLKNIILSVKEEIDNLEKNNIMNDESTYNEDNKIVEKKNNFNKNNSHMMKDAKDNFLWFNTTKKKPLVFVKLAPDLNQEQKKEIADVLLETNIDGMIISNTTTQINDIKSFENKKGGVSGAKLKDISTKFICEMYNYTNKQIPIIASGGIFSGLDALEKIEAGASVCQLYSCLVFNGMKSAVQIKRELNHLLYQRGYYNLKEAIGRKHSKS
- assayProcedure: PfDHODH enzyme inhibitors, primary screen, biochemical, C-terminal His tag, absorbance 600 nm (AID 1175);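 note: recombinant parasite enzyme with a five histidine tag at its C terminus; test concentration not given here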
- measurementConditions: DCIP absorbance 600 nm, higher = more signal, called active from +8 up or from −8 down
recordedMetric: composite z-score
API doc: respond with a numeric literal and nothing else, no unit.

Look up composite z-score of CCC1=NOC(CCC2CC(OC(=O)NCc3cccc4c3OCO4)CC3(CCCC(COC(=O)NCCc4ccccc4OC)O3)O2)C1 (configuration not stated) and report it. -0.104

Tell me its composite z-score given CCOC(=O)[C@H](CC(C)C)NC(=O)CCC1CC(OC(=O)NCc2cccc3ccccc23)CC2(CCCC(COC(=O)NCCC(C)C)O2)O1 (some centres not stated) as the entry. -2.64

Dear colleague, please send me the reported composite z-score for COC(=O)CC=C[C@@H](C)[C@@H]1C=C[C@H](O)[C@@H](CO)O1 when you can. 0.35

Quick one: give measured composite z-score for Cc1ccc(S(=O)(=O)N[C@H]2COC(=O)CC=C[C@@H](C)COC(=O)CC=C[C@@H]2C)cc1 -0.765

Provide composite z-score value for the following molecule: CCOC(=O)[C@H](CC(C)C)NC(=O)CCC1CC(OC(=O)NCCc2ccc(F)cc2)CC2(CCCC(COC(=O)NCCc3ccccc3OC)O2)O1 (some centres not stated) -0.991

Could you please provide reported composite z-score for COC(=O)CC=C[C@@H](C)[C@@H](C=NO[C@@H](C)c1cn([C@H](CO)Cc2ccccc2)nn1)NS(=O)(=O)c1ccc(C)cc1 ? Thanks! -1.16

Fill in reported composite z-score for this entry: C=CC[C@@H]1C=C[C@H](ON=C(C)CCC(=O)OC[C@H]2O[C@H](c3ccccc3)C=C[C@@H]2Oc2ccc(OC)cc2)[C@@H](CO)O1 -0.582
